experiment: Compound was tested for its inhibitory activity against DAla-DAla Ligase; set-up: species or system Enterococcus faecalis
Reported IC50 values are given for each entry in this list.
MEASURED QUANTITY: IC50 (µM)

# MOLECULE, MEASURED QUANTITY, TEST VALUE
records = [
    ("N[C@@H]1CONC1=O", "IC50", 250),
    ("CC(N)P(=O)(O)O (configuration not stated)", "IC50", 930),
]
